Each entry below lists one item and its recorded melting point value.

MOLECULE	melting point
COC(=O)c1c(O)ccnc1C(F)(F)F	78 to 82 °C
CS(=O)(=O)c1ccc(C2=C(c3cccc(F)c3)CN(C3CC3)C2=O)cc1	179 to 180 °C
O=c1c(C(F)(F)F)cn(Cc2ccccc2)c(=O)n1CCCCl	100 to 101 °C
O=S(=O)(Nc1cccnc1Nc1ccccc1)c1cccc(Cl)c1	143 to 144 °C
O=c1c(-c2ccccc2)c(SCc2ccncc2)oc2cc(OCc3ccccc3)ccc12	169 to 170 °C
CCOC(=O)c1c2n(c3cc(N4CCN(CC(C)=O)CC4)c(F)cc3c1=O)C(C)S2 (stereo unspecified)	196 to 200 °C
